Biological target: human P2Y12 receptor (Homo sapiens, UniProt Q9H244)
Sequence (Q9H244 whole entry): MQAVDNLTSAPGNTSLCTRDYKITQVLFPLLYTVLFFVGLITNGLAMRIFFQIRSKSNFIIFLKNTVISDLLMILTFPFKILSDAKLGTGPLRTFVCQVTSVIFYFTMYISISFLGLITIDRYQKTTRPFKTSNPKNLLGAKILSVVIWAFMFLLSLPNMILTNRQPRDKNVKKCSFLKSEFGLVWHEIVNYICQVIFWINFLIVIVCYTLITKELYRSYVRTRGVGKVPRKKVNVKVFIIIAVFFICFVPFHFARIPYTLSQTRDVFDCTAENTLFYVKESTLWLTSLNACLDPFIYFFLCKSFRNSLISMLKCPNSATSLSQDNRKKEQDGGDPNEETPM
Experiment: P2Y12 receptor binding assay
Details: CHO cells with recombinant expression of the human P2Y12 receptor; tritium-labeled 2-methyl-S-ADP; RT, 2 hours
Observable: IC50 (nM)

Recorded results for 6 compounds are shown here.
CCCCOC(=O)N1CCN(C(=O)[C@@H](NC(=O)c2cc(N3C[C@@H]4[C@H](CCC(=O)O)[C@@H]4C3)nc(-c3ccccc3)n2)C(C)C)CC1: 59
CCCCOC(=O)N1CCN(C(=O)[C@@H](NC(=O)c2cc(N3C[C@@H]4[C@H](N)[C@@H]4C3)nc(-c3ccccc3)n2)C(C)C)CC1: 266
CCCCOC(=O)N1CCN(C(=O)[C@@H](NC(=O)c2cc(N3C[C@@H]4[C@H](C3)[C@H]4C(=O)O)nc(-c3ccccc3)n2)C(C)C)CC1: 70
CCCCCOC(=O)N1CCN(C(=O)[C@@H](NC(=O)c2cc(N3C[C@@H]4[C@H](C3)[C@@H]4C(=O)O)nc(-c3ccccc3)n2)C(C)C)CC1: 15
CCCCOC(=O)N1CCN(C(=O)[C@@H](NC(=O)c2cc(N3C[C@@H]4[C@H](C3)[C@@H]4C(=O)O)nc(-c3ccc(C)cc3)n2)C(C)C)CC1: 18
CCCCOC(=O)N1CCN(C(=O)[C@H](CP(=O)(OCOC(=O)OCC)OCOC(=O)OCC)NC(=O)c2cc(N3C[C@@H]4[C@H](C3)[C@H]4C(=O)OCC)nc(-c3ccccc3)n2)CC1: 15

(a) CCCCOC(=O)N1CCN(C(=O)[C@H](CCC(=O)O)NC(=O)c2cc(N3C[C@@H]4[C@H](C3)[C@@H]4C(=O)O)nc(-c3ccccc3)n2)CC1
(b) CCCCOC(=O)N1CCN(C(=O)[C@H](CCC(=O)O)NC(=O)c2cc(N3C[C@@H]4[C@H](C3)[C@@H]4C(=O)OCC)nc(-c3ccccc3)n2)CC1
(c) CCOC(=O)N1CCN(C(=O)C(NC(=O)c2cc(N3CC4C(C3)C4C(=O)O)nc(-c3ccccc3)n2)C(C)C)CC1 (centres unmarked)
(d) CCCCOC(=O)N1CCN(C(=O)[C@H](CCC(=O)O)NC(=O)c2cc(N3C[C@@H]4[C@H](C3)[C@H]4NC(=O)OC(C)(C)C)nc(-c3ccccc3)n2)CC1
**Q:** Thanks in advance: please rank these 4 entries by IC50, highest to lowest. Kindly provide the labels arranged according to the requested ordering.
**A:** c, b, d, a

---

Target: human P2Y12 receptor (Homo sapiens, UniProt Q9H244)
Assay: P2Y12 receptor binding assay
Conditions: CHO cells with recombinant expression of the human P2Y12 receptor; tritium-labeled 2-methyl-S-ADP; RT, 2 hours
pIC50: −log10 of the molar value.
Observable: pIC50

CCCCOC(=O)N1CCN(C(=O)[C@H](CCC(=O)O)NC(=O)c2cc(N3C[C@@H]4[C@@H](CO)[C@@H]4C3)nc(-c3ccccc3)n2)CC1: 8.10
CCCCOC(=O)N1CCN(C(=O)[C@H](CCC(=O)O)NC(=O)c2cc(N3C[C@@H]4[C@@H](COC)[C@@H]4C3)nc(-c3ccccc3)n2)CC1: 8.18
CCCCOC(=O)N1CCN(C(=O)[C@H](CP(=O)(OCC)OCC)NC(=O)c2cc(N3C[C@@H]4[C@H](C3)[C@H]4C(=O)OCC)nc(-c3ccccc3)n2)CC1: 6.42
